IC50, IL-33-induced phospho-p38 in primary human basophils, 500 pM hIL-33: recorded values
- Target under test: T1, human IL-33 (R&D Systems, #3625-IL-010/CF) (human) (UniProt O95760)
- T1 sequence (looked up): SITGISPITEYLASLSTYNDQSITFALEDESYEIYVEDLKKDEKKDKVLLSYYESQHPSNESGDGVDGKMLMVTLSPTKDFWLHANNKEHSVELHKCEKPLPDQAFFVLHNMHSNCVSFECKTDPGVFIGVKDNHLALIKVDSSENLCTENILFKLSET
Give the number; M is assumed, so skip it.

Here are 2 binders together with their reported answers.
{"columns": ["Binder", "Readout units", "Measurement"],
 "data": [
  ["H4H9672P (antibody, from another filing, IgG4, V domains shown) VH: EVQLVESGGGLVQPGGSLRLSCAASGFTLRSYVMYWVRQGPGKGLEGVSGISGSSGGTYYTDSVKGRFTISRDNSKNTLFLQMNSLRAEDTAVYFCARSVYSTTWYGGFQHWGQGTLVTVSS VL: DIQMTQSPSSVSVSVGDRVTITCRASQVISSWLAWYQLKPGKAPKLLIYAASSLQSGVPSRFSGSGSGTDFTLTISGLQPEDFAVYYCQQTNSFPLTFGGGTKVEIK", "M", "5.7e-13"],
  ["H4H9665P (antibody, from another filing, IgG4, V domains shown) VH: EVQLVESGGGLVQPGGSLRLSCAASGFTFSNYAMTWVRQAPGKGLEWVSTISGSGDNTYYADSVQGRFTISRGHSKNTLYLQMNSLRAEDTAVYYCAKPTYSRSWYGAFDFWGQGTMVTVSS VL: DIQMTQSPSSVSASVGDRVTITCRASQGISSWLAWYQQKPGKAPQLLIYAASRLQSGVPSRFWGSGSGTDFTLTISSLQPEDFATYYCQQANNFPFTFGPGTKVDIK", "M", "2.4e-09"]
]}

Read the next record carefully.
Lookup result for H4H9676P (antibody, from another filing, IgG4, V domains shown) VH: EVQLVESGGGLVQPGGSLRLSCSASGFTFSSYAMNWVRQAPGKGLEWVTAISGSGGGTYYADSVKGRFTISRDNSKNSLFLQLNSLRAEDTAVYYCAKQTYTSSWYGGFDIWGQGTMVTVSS VL: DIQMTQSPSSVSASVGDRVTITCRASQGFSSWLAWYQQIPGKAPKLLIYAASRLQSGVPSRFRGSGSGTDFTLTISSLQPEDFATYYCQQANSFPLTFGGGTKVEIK ; measured IC50, IL-33-induced phospho-p38 in primary human basophils, 500 pM hIL-33: 9.1e-13
